Here, each record is paired with measured half-life data.
- test_details: Metabolic (microsomal) stability (human)
- Type: in vitro ADME
- assay_setup: microsomes, read-out: Metabolic Stability (Human) t1/2 (converted)
quantity_kind: half-life (min)

INSERT INTO assay_data (compound, reported) VALUES
  ('O=C(CSc1cnn[nH]1)Nc1ccccn1', 162),
  ('O=C(CSc1cnn[nH]1)Nc1nccs1', 216),
  ('O=C(CSc1cnn[nH]1)Nc1ccccc1F', 180),
  ('O=C(CSc1cnn[nH]1)Nc1ccc(F)cc1', 282),
  ('N#Cc1ccccc1NC(=O)CSc1cnn[nH]1', 222);

====

- test_details: Pharmacokinetic evaluation in mice, single intravenous dose
- Format: in vivo
- assay_setup: mouse, 10 mg/kg, male Balb/c mice, plasma, read-out: Vss
quantity_kind: Vd (L/kg)

INSERT INTO measurements (molecule, reported) VALUES
  ('O=C(CSc1cnn[nH]1)Nc1nccs1 [Compound 25]', 1.16);
